# System: Amaranthus retroflexus (AMARE)
# test: Pre-emergence biological efficacy, glasshouse, 1000 g/ha, evaluated after 13 days (100=total damage to plant; 0=no damage to plant)
# Assay type: in vivo
# settings: Amaranthus retroflexus, 312 h, rate 1,000 g/ha, read-out: Percentage damage caused to weed species, pre-emergence, AMARE
measurement-label: pest or weed control at 1000 g/ha (%)
Express it in %; write the number only.

Worked cases, pest or weed control at 1000 g/ha given:
structure	target-desc	reported
COC(=O)c1nc(-c2ccc(Cl)c(F)c2)nc2[nH]cc(C)c12	Amaranthus retroflexus (AMARE)	50
COC(=O)c1nc(-c2ccc(Cl)c(OC)c2F)nc2nc3ccccc3nc12	Amaranthus retroflexus (AMARE)	80
CCCCOCCOC(=O)c1nc(-c2ccc(Cl)c(OC)c2F)cc2[nH]cc(C)c12	Amaranthus retroflexus (AMARE)	0
COc1c(Cl)ccc(-c2nc(C(=O)O)c3c(C)cn(S(=O)(=O)c4ccc(C)cc4)c3n2)c1F	Amaranthus retroflexus (AMARE)	0
COc1c(Cl)ccc(-c2nc(C(=O)O)c3c(n2)N(C)CCN3C)c1F	Amaranthus retroflexus (AMARE)	0

IN: // lookup pest or weed control at 1000 g/ha for COC(=O)c1nc(-c2ccc(Cl)c(OC)c2F)nc2c1c(C)cn2C(=O)OC
OUT: 0

IN: // lookup pest or weed control at 1000 g/ha for O=C(O)c1nc(-c2ccc(Cl)c(F)c2)nc2c1ccn2Cc1ncccc1Cl
OUT: 0

IN: // lookup pest or weed control at 1000 g/ha for COc1c(Cl)ccc(-c2cc3[nH]cc(C)c3c(C(=O)O)n2)c1F
OUT: 20

###

# Test system: Ipomoea hederaceae (IPOHE)
# test: Pre-emergence biological efficacy, glasshouse, 1000 g/ha, evaluated after 13 days (100=total damage to plant; 0=no damage to plant)
# Type: in vivo
# settings: Ipomoea, 312 h, rate 1,000 g/ha, read-out: Percentage damage caused to weed species, pre-emergence, IPOHE
measurement-label: pest or weed control at 1000 g/ha
Could you give the number and then its unit, please?

Worked cases, pest or weed control at 1000 g/ha given:
compound	pest or weed control at 1000 g/ha
COc1c(Cl)ccc(-c2nc(C(=O)O)c3c(C)cn(Cc4ccccc4[N+](=O)[O-])c3n2)c1F	30%
COc1c(Cl)ccc(-c2nc(C(=O)O)c3c(C)cn(Cc4ccc(F)cc4)c3n2)c1F	0%
COc1c(Cl)ccc(-c2nc(C(=O)O)c3c(C)cn(S(=O)(=O)c4ccc(C)cc4)c3n2)c1F	0%
COC(=O)c1nc(-c2ccc(Cl)c(OC)c2F)nc2c1c(C)cn2Cc1ccc(C(F)(F)F)o1	0%

IN: // lookup pest or weed control at 1000 g/ha for COC(=O)c1nc(-c2ccc(Cl)c(OC)c2F)cc2[nH]ccc12
OUT: 50%

IN: // lookup pest or weed control at 1000 g/ha for COC(=O)c1nc(C2CC2)nc2[nH]c(C)cc12
OUT: 0%

IN: // lookup pest or weed control at 1000 g/ha for COC(=O)c1nc(-c2ccc(Cl)c(OC)c2F)nc2c1NC(c1ccccc1)C(c1ccccc1)N2 (centres unmarked)
OUT: 0%

IN: // lookup pest or weed control at 1000 g/ha for COC(=O)c1nc(-c2ccc(Cl)c(OC)c2F)nc2nc3ccccc3nc12
OUT: 60%

Data provenance: patent US20120202690A1
